Each item that follows carries a reported IC50.
System: human colon carcinoma HT-29
Assay: MTT proliferation assay, HT-29
Assay type: cell-based
Conditions: Homo sapiens, HT-29 cells, 96 h
MEASURED_ENDPOINT: IC50 (µM)

INSERT INTO assay_data (compound, measured_endpoint, reported_result) VALUES
  ('CCc1cc(-c2nc3n[nH]cc3c(=O)s2)c(O)cc1O [1c]', 'IC50', 20.9),
  ('Cc1cc(-c2nc3n[nH]cc3c(=O)s2)c(O)cc1O [1b]', 'IC50', 109),
  ('O=c1sc(-c2cc(Cl)c(O)cc2O)nc2nc[nH]c12 [4c]', 'IC50', 61.4),
  ('CCCc1nn(C)c2c(=O)sc(-c3cc(C)c(O)cc3O)nc12 [2c]', 'IC50', 157),
  ('Cc1c(O)ccc(-c2nc3n[nH]cc3c(=O)s2)c1O [1a]', 'IC50', 102),
  ('CCc1cc(-c2nc3[nH]cnc3c(=O)s2)c(O)cc1O [3c]', 'IC50', 75.4);
